# Test system: HIV-1RF
# assay-info: Anti-HIV (in MT-2 cells) assay, viral RNA accumulation
# Assay type: cell-based
# condition-description: Table 1; EC90; MT-2 cells; read-out: Anti-HIV-1 activity in different cells (EC90, μM) MT-2
With a cut-off of 1 µM, any EC90 strictly below it is called MET; any EC90 meeting it or above is called NOT MET.

| molecule | class-assignment |
| --- | --- |
| O=C(Nc1nc(=O)n([C@H]2CC[C@@H](CO)O2)cc1F)c1ccccc1 [Compound 21] | NOT MET |
| O=C(Nc1nc(=O)n([C@H]2CC[C@@H](CO)O2)cc1F)c1ccccc1[N+](=O)[O-] [Compound 20] | MET |
| COc1ccc(C(=O)Nc2nc(=O)n([C@H]3CC[C@@H](CO)O3)cc2F)cc1 [Compound 17] | NOT MET |
| CCCC(=O)Nc1nc(=O)n([C@H]2CC[C@@H](CO)O2)cc1F [Compound 34] | MET |
| O=C(Nc1nc(=O)n([C@H]2CC[C@@H](CO)O2)cc1F)c1ccco1 [Compound 29] | MET |
| O=C(Nc1nc(=O)n([C@H]2CC[C@@H](CO)O2)cc1F)c1cccc([N+](=O)[O-])c1 [Compound 19] | NOT MET |
| CC(C)(C)c1ccc(C(=O)Nc2nc(=O)n([C@H]3CC[C@@H](CO)O3)cc2F)cc1 [Compound 28] | MET |
| Cc1ccccc1C(=O)Nc1nc(=O)n([C@H]2CC[C@@H](CO)O2)cc1F [Compound 24] | NOT MET |
| O=C(Nc1nc(=O)n([C@H]2CC[C@@H](CO)O2)cc1F)c1cccnc1 [Compound 31] | NOT MET |
